Please respond with reported cell viability for every item in the list.
# Test system: NOMO1
# experiment.description: cell viability relative to DMSO control; higher = less cytotoxic
# conditions: HPLM + 10% dialyzed FBS; 48 h; 15.4 µM
For clarity, give the value followed by its unit.

{"columns": ["compound", "cell viability"],
 "data": [
  ["O=C(CCCN1CCC(O)(c2ccc(Cl)cc2)CC1)c1ccc(F)cc1", "110%"],
  ["CN1CCC(CNc2ccc3ncc(-c4cccc(OC(F)(F)F)c4)n3n2)CC1", "70.7%"],
  ["Clc1ccc(C(c2ccccc2Cl)C(Cl)Cl)cc1 (centres undefined)", "99.8%"],
  ["c1coc(CNc2ncnc3nc[nH]c23)c1", "108%"],
  ["NC(=O)c1nnn(Cc2cc(Cl)c(C(=O)c3ccc(Cl)cc3)c(Cl)c2)c1N", "120%"]
]}

Report cell viability for each item below.
1. CC(=O)N(O)CCCCCNC(=O)CCC(=O)N(O)CCCCCNC(=O)CCC(=O)N(O)CCCCCN.C[S+](=O)([O-])O
2. COc1cccc(OC)c1-c1cc(C(=O)NC2(C(=O)O)C3CC4CC(C3)CC2C4)nn1-c1ccnc2cc(Cl)ccc12 (centres undefined)
3. Cc1nnc(C(=O)NC(C)(C)c2nc(C(=O)NCc3ccc(F)cc3)c(O)c(=O)n2C)o1
4. CN(C[C@@H]1COCCO1)[S+]([O-])(=O)NC2=CC3=C(C=C2)\C=C/C4=C(C=C(C=N4)C5=C[N](C)N=C5)C3=O
5. CC1(C)[C@@H](O)CC[C@@]2(C)[C@H]1CC[C@]3(C)[C@@H]2C(=O)\C=C/4[C@@H]5C[C@](C)(CC[C@]5(C)CC[C@@]34C)C(O)=O
6. C#CCC(Cc1cnc2nc(N)nc(N)c2n1)c1ccc(C(=O)N[C@@H](CCC(=O)O)C(=O)O)cc1 (some centres undefined)
7. CC[C@H](CO)Nc1nc(NCc2ccccc2)c2ncn(C(C)C)c2n1

Marked response:
1: 23.6%; 2: 111%; 3: 97.9%; 4: 26.2%; 5: 124%; 6: 54.7%; 7: 96.4%

---

Could you please report measured cell viability for the items listed next?
# System: SEM cells
# experiment.description: cell viability relative to DMSO control; higher = less cytotoxic
# conditions: RPMI 5 mM glucose + 10% FBS; 48 h; 0.00234 µM
Numbers only, in %.

Recorded cell viability, per entry:
{"columns": ["smiles.code", "property.measured", "unit.descriptor", "reading"],
 "data": [
  ["C[C@H](NC(=O)[C@@H](O)c1cc(F)cc(F)c1)C(=O)N[C@@H]1C(=O)N(C)c2ccccc2-c2ccccc21", "cell viability", "%", 121],
  ["C/C1=C/C(=C(/CNC(=O)C2=CC(=CC3=C2C=N[N]3C4CCCC4)C5=CC=C(CN6CCOCC6)C=C5)C(=O)N1)C", "cell viability", "%", 103],
  ["CC(C)[C@]12O[C@H]1[C@@H]3O[C@@]34[C@@]5(C)CC\\C6=C(COC6=O)/[C@@H]5C[C@@H]7O[C@]47[C@@H]2O", "cell viability", "%", 5.86]
]}

Batch of 3 compounds: report cell viability for each.
1. Cc1n[nH]c2ccc(-c3cncc(OC[C@@H](N)Cc4ccccc4)c3)cc12
2. CC[C@H]1OC(=O)[C@H](C)[C@@H](O[C@H]2C[C@@](C)(OC)[C@@H](O)[C@H](C)O2)[C@H](C)[C@@H](O[C@@H]2O[C@H](C)C[C@H](N(C)C)[C@H]2O)[C@](C)(O)C[C@@H](C)/C(=N\OCOCCOC)[C@H](C)[C@@H](O)[C@]1(C)O
3. COc1cc(N2CCC(N3CCN(C)CC3)CC2)ccc1Nc1ncc(Cl)c(Nc2ccccc2[S+](=O)([O-])C(C)C)n1

Marked response:
[105, 98.1, 57.5]

Give me cell viability for each of these compounds, listed below.
1. CCn1c(C(=O)N(C2CC2)C2CC2)cc2c3c(ncn3C)c(Nc3cc(C)n(C)n3)nc21
2. CCC(=O)N1CCN(CC1)C2=C(C=C(C=C2)N3C(=O)\C=C/C4=C3C5=CC(=CC=C5N=C4)C6=CN=C7C=CC=CC7=C6)C(F)(F)F

Marked response:
1. 114
2. 102

---

Would you mind telling me the reported cell viability of each entry?
# Tested on: SEM cells
# experiment.description: cell viability relative to DMSO control; higher = less cytotoxic
# conditions: HPLM + 10% dialyzed FBS; 48 h; 0.0211 µM
Express the reported value numerically, then name its unit.

Known results for molecules:
{"columns": ["smiles.code", "cell viability"],
 "data": [
  ["Cc1nnc(C(C)C)n1[C@@H]1C[C@H]2CC[C@@H](C1)N2CC[C@H](NC(=O)C1CCC(F)(F)CC1)c1ccccc1", "95%"],
  ["CC(=O)N(O)CCCCCNC(=O)CCC(=O)N(O)CCCCCNC(=O)CCC(=O)N(O)CCCCCN.C[S+](=O)([O-])O", "26.2%"],
  ["CN(CC(=O)N(Cc1ccc(C2CCCCC2)cc1)c1ccc(C(=O)O)c(O)c1)[S+](=O)([O-])c1c(F)c(F)c(F)c(F)c1F", "95.8%"]
]}

Now consider a different molecule.
Exam item: Give its cell viability value. Item: CC(C)(Sc1cc(C(C)(C)C)c(O)c(C(C)(C)C)c1)Sc1cc(C(C)(C)C)c(O)c(C(C)(C)C)c1
Marked response: 90.9%

---

# Tested on: SEM cells
# experiment.description: cell viability relative to DMSO control; higher = less cytotoxic
# conditions: RPMI 5 mM glucose + 10% FBS; 48 h; 0.19 µM
For each of the compounds below, state its cell viability.
Give bare numbers, in %.

{"columns": ["compound", "unit.descriptor", "reading"],
 "data": [
  ["CCN1\\C=C(C(O)=O)/C(=O)C2=C1C(=C(N3CCNC(C)C3)C(=C2)F)F (stereo not given)", "%", 100],
  ["N#Cc1c(N(CC(=O)[O-])CC(=O)[O-])sc(C(=O)[O-])c1CC(=O)[O-].O.O.O.O.O.O.O.[Sr+2].[Sr+2]", "%", 146],
  ["CN(C[C@@H]1COCCO1)[S+]([O-])(=O)NC2=CC3=C(C=C2)\\C=C/C4=C(C=C(C=N4)C5=C[N](C)N=C5)C3=O", "%", 76.3]
]}

# batch: return cell viability for each of the 8 compounds below
1. CC(C)(Sc1cc(C(C)(C)C)c(O)c(C(C)(C)C)c1)Sc1cc(C(C)(C)C)c(O)c(C(C)(C)C)c1
2. C/C1=C/C(=C(/CNC(=O)C2=CC(=CC3=C2C=N[N]3C4CCCC4)C5=CC=C(CN6CCOCC6)C=C5)C(=O)N1)C
3. CC1=CC/2=C(C=C1C)N(C[C@@H](O)[C@@H](O)[C@@H](O)CO)C/3=N/C(=O)NC(=O)C3=N2
4. CCc1nc(N)nc(N)c1-c1ccc(Cl)cc1
5. COc1ccc([S+](=O)([O-])Nc2cc(-c3c(O)ccc4ccccc34)c(O)c3ccccc23)cc1
6. O=C(Nc1cccnc1)N1CCC(Cc2cccc(Oc3ccc(C(F)(F)F)cn3)c2)CC1
7. CC[C@H](CO)Nc1nc(NCc2ccccc2)c2ncn(C(C)C)c2n1
8. Cc1noc(N[S+](=O)([O-])c2ccc(N)cc2)c1C

Marked response:
103
96.5
97.8
99.3
127
88.4
126
110

Batch request: cell viability per item, same order as input.
1. Cc1nnc(C(=O)NC(C)(C)c2nc(C(=O)NCc3ccc(F)cc3)c(O)c(=O)n2C)o1
2. COCC(=O)NC/C=C/c1ccc2ncnc(Nc3ccc(Oc4ccc(C)nc4)c(C)c3)c2c1
3. CO[C@H]1C[C@@H]2CC[C@@H](C)[C@@](O)(O2)C(=O)C(=O)N2CCCC[C@H]2C(=O)O[C@H]([C@@H](C)C[C@@H]2CC[C@@H](O)[C@H](OC)C2)CC(=O)[C@H](C)/C=C(\C)[C@@H](O)[C@@H](OC)C(=O)[C@H](C)C[C@H](C)/C=C/C=C/C=C/1C
4. COc1cccc(OC)c1-c1cc(C(=O)NC2(C(=O)O)C3CC4CC(C3)CC2C4)nn1-c1ccnc2cc(Cl)ccc12 (stereo not given)

Marked response:
[93.8, 98.8, 77.3, 98.4]

---

Kindly supply the reported cell viability values for the records listed here.
# Test system: P12-Ichikawa
# experiment.description: cell viability relative to DMSO control; higher = less cytotoxic
# conditions: RPMI 5 mM glucose + 10% FBS; 48 h; 0.000781 µM
One number for each entry, in %.

// below: answered compounds
{"columns": ["compound", "reading"],
 "data": [
  ["CN(CC(=O)N(Cc1ccc(C2CCCCC2)cc1)c1ccc(C(=O)O)c(O)c1)[S+](=O)([O-])c1c(F)c(F)c(F)c(F)c1F", 93],
  ["CCOC(=O)c1c(CSc2ccccc2)n(C)c2cc(Br)c(O)c(CN(C)C)c12", 118],
  ["CC(C)(C)[C@]1(O)C[C@@H]2OC(=O)C[C@@]23C(=O)O[C@@H]2OC(=O)[C@H](O)C213 (some centres undefined)", 128]
]}

Exam item: Return reported cell viability; argument: CCC[C@H](Nc1nc(-c2ccc(NC(=O)NCC)c(OC)c2)ncc1C)c1cccnc1
Marked response: 125
